Reference source: PubChem BioAssay (EPA / NIEHS)

Reported AC50 values follow for various compounds
Tested on: TTR (gene 7276)
Experiment: CCTE_GLTED_hTTR_0.125uM: CCTE's human Transthyretin (hTTR) Inhibition Assay, with 0.125uM TTR, Great Lakes Toxicology and Ecology Division (GLTED) Lab (AID 2284431);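 further: hits lower the fluorescence signal relative to DMSO baseline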
Procedure: CCTE_GLTED_hTTR is a cell-free, single-readout assay designed to test the chemicals' ability to displace T4 from the human transthyretin (TTR) protein. TTR (at 0.125uM or 0.5uM) is incubated in presence of test chemical for 2 hours during which disrupting chemicals displace ANSA from the TTR protein. Results read fluorescence at 380 excitation and 475 emission.CCTE_GLTED_hTTR_0.125uM is the assay component measured from the CCTE_GLTED_hTTR assay. […]
The source made the active and inactive calls. How the source made its calls: active means hit-call score of the fitted dose curve at least 0.9, where 1 is the maximum; inactive means score below 0.9.

stdin: Fill blank: measured AC50 of the compound CCOP(=O)(OCC)Oc1ccc([N+](=O)[O-])cc1 is ____.
stdout: 5.87 µM (active)

stdin: Fill blank: measured AC50 of the compound CCOC(=O)COc1ccc(Cl)cc1Cl is ____.
stdout: 19.4 µM (active)

stdin: Fill blank: measured AC50 of the compound Nc1cc(Cl)cc(Cl)c1 is ____.
stdout: 6.93 µM (active)

stdin: Fill blank: measured AC50 of the compound Oc1cc(Cl)ccc1Cl is ____.
stdout: 1.17 µM (active)

----------
Test: CCTE_Mundy_HCI_Cortical_Synap_Neur_Matur_NeuriteLength: CCTE's Synaptogenesis and Neurite Maturation Assay in rat cortical cells for Neurite Length, Mundy Lab (AID 2284214)
Experimental: CCTE_Mundy_HCI_Cortical_Synap&Neurite_Matur is a multiplexed, cell-based-readout assay that uses rat primary cortical cells with measurements taken at 288.33 hours after chemical dosing in a microplate: 96-well plate.CCTE_Mundy_HCI_Cortical_Synap_Neur_Matur_NeuriteLength is one of eight components of the CCTE_Mundy_HCI_Cortical_Synap&Neurite_Matur assay. It measures synaptogenesis and neurite maturation related to neurite length using High Content Imaging of fluorescently labelled markers.[…] […]
Calls of active or inactive are those of the source. The calls were made as follows: active = hit-call score of the fitted dose curve at least 0.9, where 1 is the maximum; inactive = score below 0.9.
Pick one: active, inactive

Study these solved cases before continuing.
stdin: Please share the test call associated with CC(=O)[O-].[Tl+] .
stdout: active

stdin: Please share the test call associated with CCOP(=O)(Oc1cnc(C(C)(C)C)nc1)OC(C)C (stereo not drawn) .
stdout: inactive

stdin: Please share the test call associated with C=CCN1CC[C@]23c4c5ccc(O)c4O[C@H]2C(=O)CC[C@@]3(O)[C@H]1C5 .
stdout: inactive

stdin: Please share the test call associated with CN[C@]1(c2ccccc2Cl)CCCCC1=O .
stdout: inactive

stdin: Please share the test call associated with CC1(C)[C@H](C=C(Cl)Cl)[C@H]1C(=O)OCc1c(F)c(F)cc(F)c1F .
stdout: active

stdin: Please share the test call associated with CC1(C)[C@H](C(=O)O[C@H](C#N)c2cccc(Oc3ccccc3)c2)[C@@H]1C=C(Br)Br .
stdout: active

stdin: Please share the test call associated with C[n+]1ccc(-c2cc[n+](C)cc2)cc1 .
stdout: active

stdin: Please share the test call associated with COC(=O)[C@H]1[C@@H](OC(=O)c2ccccc2)C[C@@H]2CC[C@H]1N2C .
stdout: inactive

stdin: Please share the test call associated with CC1(C)[C@@H](C=C(Cl)Cl)[C@@H]1C(=O)O[C@@H](C#N)c1ccc(F)c(Oc2ccccc2)c1 .
stdout: inactive

stdin: Please share the test call associated with O=C(O)CNCP(=O)(O)O .
stdout: inactive

Others:
stdin: Please share the test call associated with [CH3][Hg][Cl] .
stdout: active

stdin: Please share the test call associated with CCOP(=O)(OCC)SCSCC .
stdout: inactive

stdin: Please share the test call associated with CCOP(=O)(OCC)SCSC(C)(C)C .
stdout: inactive

stdin: Please share the test call associated with CC1(C)C(C=C(Cl)Cl)C1C(=O)O[C@H](C#N)c1cccc(Oc2ccccc2)c1 (stereo partly drawn) .
stdout: active

stdin: Please share the test call associated with Cn1nc(C(F)(F)F)c(CS(=O)(=O)C2=NOC(C)(C)C2)c1OC(F)F .
stdout: active

stdin: Please share the test call associated with CN1C(=O)CN=C(c2ccccc2)c2cc(Cl)ccc21 .
stdout: inactive

stdin: Please share the test call associated with CCOP(=O)(OCC)OC(Cl)C(Cl)(Cl)Cl (stereo not drawn) .
stdout: inactive

stdin: Please share the test call associated with C[C@H](N)Cc1ccccc1 .
stdout: inactive
